Test: Pharmacokinetic measurement in C57BL/6 mice, single subcutaneous dose, plasma ELISA
Format: in vivo
Settings: single subcutaneous dose 30 nmol/kg, plasma
Description: Each fusion protein conjugate was injected subcutaneously into C57BL/6 mice (n=3/group) once and plasma samples were collected at designed timepoints and analyzed by ELISA method. Plasma concentrations are indicated as mean values and standard error (SEM). […] Pharmacokinetic data were analyzed by WinNonlin software. Tmax, Cmax, T1/2, AUC and MRT were calculated for each molecule.
# key: entry, value: Tmax
Answer format: numeric, h implied, no suffix.

Compound 63: GLP-1/FGF21 fusion polypeptide SEQ ID NO: 160 conjugated with Moiety B at 51C and 222C (conjugate, Moiety B conjugated at C51 and C222) HGEGTFTSDVSSYLEEQAAKEFIAWLVKGGGGGGGSGGGGSGGGGSGGGGCHPIPDSSPLLQFGGQVRQRYLYTDDAQQTEAHLEIREDGTVGGAADQSPESLLQLKALKPGVIQILGVKTSRFLCQRPDGALYGSLHFDPEACSFRELLLEDGYNVYQSEAHGLPLHLPGQKSPHRDPAPRGPARFLPLPGLPPALPEPPGILAPQPPDVGSSDPLSLVGCSQGRSPSYES
6.7

Request the reported Tmax associated with Compound 10: GLP-1/FGF21 fusion polypeptide SEQ ID NO: 10 conjugated with Moiety A at 222K (conjugate, Moiety A conjugated at K222) HGEGTFTSDVSSYLEEQAAREFIAWLVRGGGGGGGSGGGGSGGGGSGGGGSHPIPDSSPLLQFGGQVRQRYLYTDDAQQTEAHLEIREDGTVGGAADQSPESLLQLRALRPGVIQILGVRTSRFLCQRPDGALYGSLHFDPEACSFRELLLEDGYNVYQSEAHGLPLHLPGQRSPHRDPAPRGPARFLPLPGLPPALPEPPGILAPQPPDVGSSDPLSLVGKSQGRSPSYES
4

Request the reported Tmax associated with Compound 4: GLP-1/FGF21 fusion polypeptide SEQ ID NO: 4 conjugated with Moiety A at 51K and 231K (conjugate, Moiety A conjugated at K51 and K231) HGEGTFTSDVSSYLEEQAAREFIAWLVRGGGGGGGSGGGGSGGGGSGGGGKHPIPDSSPLLQFGGQVRQRYLYTDDAQQTEAHLEIREDGTVGGAADQSPESLLQLRALRPGVIQILGVRTSRFLCQRPDGALYGSLHFDPEACSFRELLLEDGYNVYQSEAHGLPLHLPGQRSPHRDPAPRGPARFLPLPGLPPALPEPPGILAPQPPDVGSSDPLSLVGGSQGRSPSYKS
8

Request the reported Tmax associated with Compound 9: GLP-1/FGF21 fusion polypeptide SEQ ID NO: 9 conjugated with Moiety A at 231K (conjugate, Moiety A conjugated at K231) HGEGTFTSDVSSYLEEQAAREFIAWLVRGGGGGGGSGGGGSGGGGSGGGGSHPIPDSSPLLQFGGQVRQRYLYTDDAQQTEAHLEIREDGTVGGAADQSPESLLQLRALRPGVIQILGVRTSRFLCQRPDGALYGSLHFDPEACSFRELLLEDGYNVYQSEAHGLPLHLPGQRSPHRDPAPRGPARFLPLPGLPPALPEPPGILAPQPPDVGSSDPLSLVGGSQGRSPSYKS
6

Request the reported Tmax associated with Compound 19: GLP-1/FGF21 fusion polypeptide SEQ ID NO: 19 conjugated with Moiety A at 51K and 222K (conjugate, Moiety A conjugated at K51 and K222) HGEGTFTSDVSSYLEEQAAREFIAWLVRGGGGGGGSGGGGSGGGGSGGGGKHPIPDSSPLLQFGGQVRQRYLYTDDAQQTEAHLEIREDGTVGGAADQSPESLLQLRALRPGVIQILGVRTSRFLCQRPDGALYGSLHFDPEACSFRELLLEDGYNVYQSEAHGLPLHLPGQRSPHRDPAPRGPARFLPLPGLPPALPEPPGILAPQPPDVGSSDPLSLVGKSQGRSPSYES
4

Every entry's value here was drawn from patent US11510990B2.
